Hey, just so you know, these numbers are from patent US10300071B2.

target: Mtb AccD6 (Mycobacterium tuberculosis); test: biochemical; type: biochemical; settings: 300 μM malonyl-CoA, inhibitor 10 μM to 2000 μM; read-out: IC50
RESULT TYPE: IC50 (nM)
Write the answer as a number in nM, unit excluded.

INSERT INTO measurements (smiles_data, result_type, observed_measurement) VALUES
  ('CONC(=O)Cc1ccc(Oc2nc3ccc(Cl)cc3s2)cc1', 'IC50', 1000),
  ('CCOC(=O)[C@@H](C)Oc1ccc(Oc2cnc3cc(Cl)ccc3n2)cc1', 'IC50', 2300),
  ('CN(C)C(=O)COc1ccc(Oc2cnc3cc(Cl)ccc3n2)cc1', 'IC50', 1800);

Prompt: Return reported IC50; argument: CONC(=O)COc1ccc(Oc2cnc3cc(Cl)ccc3n2)cc1
Completion: 3700

----------
molecular target: Mtb AccD6 (Mycobacterium tuberculosis, UniProt P9WQH5); test: biochemical; assay type: biochemical; conditions: 300 μM malonyl-CoA, inhibitor 10 μM to 2000 μM; read-out: IC50
Sequence (P9WQH5 whole entry, looked up): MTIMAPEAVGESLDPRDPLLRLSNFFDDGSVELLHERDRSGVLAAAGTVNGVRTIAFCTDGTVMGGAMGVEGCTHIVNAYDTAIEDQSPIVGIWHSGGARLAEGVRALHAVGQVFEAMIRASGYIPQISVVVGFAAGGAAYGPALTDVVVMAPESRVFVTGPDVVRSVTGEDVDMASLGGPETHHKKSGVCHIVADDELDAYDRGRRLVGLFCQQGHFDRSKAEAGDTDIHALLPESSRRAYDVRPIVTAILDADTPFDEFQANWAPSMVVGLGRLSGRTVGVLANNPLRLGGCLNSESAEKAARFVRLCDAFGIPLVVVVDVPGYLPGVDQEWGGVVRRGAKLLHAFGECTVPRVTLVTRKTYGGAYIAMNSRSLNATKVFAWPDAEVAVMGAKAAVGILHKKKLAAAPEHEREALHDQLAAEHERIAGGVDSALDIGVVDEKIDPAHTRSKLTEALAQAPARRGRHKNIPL
// returns n unless IC50 is strictly below 900 nM, in which case y

Worked examples follow.
INSERT INTO results (compound, label_class) VALUES
  ('CNC(=O)Cc1ccc(Oc2nc3ccc(F)cc3s2)cc1', 'y'),
  ('CC(C)NC(=O)Nc1ccc(Oc2nc3ccc(F)cc3s2)cc1', 'y'),
  ('C[C@@H](Oc1ccc(Oc2nc3ccccc3s2)cc1)C(=O)O', 'n');

Prompt: is_below(IC50, 900 nM) for CC(C)NC(=O)Nc1ccc(Oc2ccc3cc(Cl)ccc3n2)cc1 ?
Completion: y

Prompt: is_below(IC50, 900 nM) for O=C(COc1ccc(Oc2cnc3cc(Cl)ccc3n2)cc1)N1CCNCC1 ?
Completion: n

----------
target: Mtb AccD6 (Mycobacterium tuberculosis, UniProt P9WQH5); assay: biochemical; format: biochemical; conditions: 300 μM malonyl-CoA, inhibitor 10 μM to 2000 μM; read-out: IC50
Parameter: IC50. Scope: all listed entries.
Write the answer as a number in µM, unit excluded.

INSERT INTO measurements (smiles_data, unit_spec, observed_measurement) VALUES
  ('COC(=O)Cn1ccc(Oc2nc3ccc(Cl)cc3s2)cc1=O', 'µM', 11.3);

Prompt: What IC50 appears in the records for this molecule with Mtb AccD6 (Mycobacterium tuberculosis, UniProt P9WQH5)? CNC(=O)Cc1ccc(Oc2nc3ccc(Cl)cc3s2)cc1OC
Completion: 7.18

Prompt: What IC50 appears in the records for this molecule with Mtb AccD6 (Mycobacterium tuberculosis, UniProt P9WQH5)? N#CCOc1ccc(Oc2cnc3cc(Cl)ccc3n2)cc1
Completion: 7.8

Prompt: What IC50 appears in the records for this molecule with Mtb AccD6 (Mycobacterium tuberculosis, UniProt P9WQH5)? CC(C)NC(=O)Nc1ccc(Oc2nc3ccc(C#N)cc3s2)cc1
Completion: 7.9

----------
target: Mtb AccD6 (Mycobacterium tuberculosis, UniProt P9WQH5); assay: biochemical; assay type: biochemical; settings: read-out: inhibition at 20 uM
inhibition at 20 µM of 30% or higher: Y. Under 30%: N.

Worked examples follow.
INSERT INTO results (compound, label_class) VALUES
  ('CC(C)NC(=O)Nc1ccc(Oc2nc3ccc(O)cc3s2)cc1 [NZ-362]', 'N'),
  ('O=C(O)/C=C/c1ccc(Oc2nc3ccc(Cl)cc3s2)cc1 [NZ-283]', 'Y'),
  ('Clc1ccc2nc(Oc3ccccc3)sc2c1 [NZ-292, 6-chloro-2-phenoxy-1,3-benzothiazole]', 'Y');

Prompt: Given the entry COC(=O)Cc1ccc(Oc2nc3ccc(Cl)cc3o2)cc1 [NZ-302] , answer whether its inhibition at 20 µM meets or surpasses 30%.
Completion: Y

Prompt: Given the entry COC(=O)COc1ccc(Oc2nc3ccc(F)cc3s2)cc1 [NZ-303] , answer whether its inhibition at 20 µM meets or surpasses 30%.
Completion: Y

Prompt: Given the entry COC(=O)CCc1ccc(Oc2nc3ccc(Cl)cc3s2)cc1 [NZ-280] , answer whether its inhibition at 20 µM meets or surpasses 30%.
Completion: Y

Prompt: Given the entry CC(C(=O)N1CCNCC1)c1ccc(Oc2nc3ccc(Cl)cc3s2)cc1 (stereo not drawn) [NZ-364] , answer whether its inhibition at 20 µM meets or surpasses 30%.
Completion: N

Prompt: Given the entry NCC(=O)Nc1ccc(Oc2nc3ccc(F)cc3s2)cc1 [NZ-417] , answer whether its inhibition at 20 µM meets or surpasses 30%.
Completion: N

----------
molecular target: UniProtKB P9WQH5; assay: biochemical; type: biochemical; details: 300 μM malonyl-CoA, inhibitor 10 μM to 2000 μM; read-out: IC50
RESULT TYPE: IC50 (nM)
Write the answer as a number in nM, unit excluded.

In the examples that follow, each entry is paired with its recorded IC50.
INSERT INTO results (compound, result_type, unit_spec, observed_measurement) VALUES
  ('CC(Oc1ccc(Oc2nc3ccc(Cl)cc3o2)cc1)C(=O)O (stereo not shown) [fenoxaprop-p, reference compound]', 'IC50', 'nM', 1500),
  ('Cc1ccc2nc(Oc3ccc(NC(=O)NC(C)C)cc3)sc2c1 [NZ-358]', 'IC50', 'nM', 20000),
  ('CC(C)NC(=O)Nc1ccc(Oc2nc3cc(F)ccc3s2)cc1 [NZ-373]', 'IC50', 'nM', 1660);

Prompt: Return reported IC50; argument: CONC(=O)C(OC)c1ccc(Oc2nc3ccc(Cl)cc3s2)cc1 (stereo not shown) [NZ-357]
Completion: 3600

Prompt: Return reported IC50; argument: O=C(O)Cc1ccc(Oc2nc3cc(F)c(F)cc3s2)cc1 [NZ-399]
Completion: 180

Prompt: Return reported IC50; argument: CC(C(=O)NCCO)c1ccc(Oc2nc3ccc(Cl)cc3s2)cc1 (stereo not shown) [NZ-370]
Completion: 1000

Prompt: Return reported IC50; argument: CC(C(=O)N(C)C)c1ccc(Oc2nc3ccc(Cl)cc3s2)cc1 (stereo not shown) [NZ-368]
Completion: 3600

Prompt: Return reported IC50; argument: COC(=O)Cc1ccc(Oc2nc3cc(F)c(F)cc3s2)cc1 [NZ-398]
Completion: 3600

Prompt: Return reported IC50; argument: CNC(=O)C(C)c1ccc(Oc2nc3ccc(Cl)cc3s2)cc1 (stereo not shown) [NZ-369]
Completion: 870

Prompt: Return reported IC50; argument: CNC(=O)Cc1ccc(Oc2cnc3cc(Cl)ccc3n2)cc1O [NZ-402]
Completion: 210

Prompt: Return reported IC50; argument: CC(C)NC(=O)Nc1ccc(Oc2cnc3cc(F)ccc3n2)cc1 [NZ-345]
Completion: 500

Prompt: Return reported IC50; argument: O=C(COc1ccc(Oc2cnc3cc(Cl)ccc3n2)cc1)NS(=O)(=O)C(F)(F)F [NZ-275]
Completion: 3800

Prompt: Return reported IC50; argument: CC(C)NC(=O)Nc1ccc(Oc2nc3cc(Cl)ccc3s2)cc1 [NZ-376]
Completion: 874

Prompt: Return reported IC50; argument: CC(C)(C)OC(=O)NCC(=O)Nc1ccc(Oc2nc3ccc(F)cc3s2)cc1 [NZ-415]
Completion: 20000

Prompt: Return reported IC50; argument: CC(C)NC(=O)Cn1ccc(Oc2nc3ccc(Cl)cc3s2)cc1=O [NZ-404]
Completion: 14400

Prompt: Return reported IC50; argument: CCNC(=O)COc1ccc(Oc2cnc3cc(Cl)ccc3n2)cc1 [NZ-306]
Completion: 4600

Prompt: Return reported IC50; argument: CC(C)NC(=O)Nc1ccc(Oc2nc3ccccc3s2)cc1 [NZ-360]
Completion: 13300

Prompt: Return reported IC50; argument: CN1CCN(C(=O)COc2ccc(Oc3cnc4cc(Cl)ccc4n3)cc2)CC1 [NZ-278]
Completion: 1100

Prompt: Return reported IC50; argument: O=C(O)c1ccc(Oc2nc3ccc(Cl)cc3s2)cc1 [NZ-288]
Completion: 12000

Prompt: Return reported IC50; argument: CCOC(COc1ccc(Oc2cnc3cc(Cl)ccc3n2)cc1)OCC [NZ-272]
Completion: 5800

Prompt: Return reported IC50; argument: O=C(O)Cc1ccc(Oc2cnc3cc(Cl)ccc3n2)cc1 [NZ-298]
Completion: 280

Prompt: Return reported IC50; argument: CC(C)NC(=O)Nc1ccc(Oc2nc3ccc(Cl)cc3s2)cc1 [NZ-331]
Completion: 800

----------
Parameter: IC50. Scope: all listed entries.
target: Mtb AccD6 (Mycobacterium tuberculosis); assay: biochemical; type: biochemical; conditions: 300 μM malonyl-CoA, inhibitor 10 μM to 2000 μM; read-out: IC50
Write the answer as a number in nM, unit excluded.

In the examples that follow, each entry is paired with its recorded IC50.
INSERT INTO assay_data (compound, observed_measurement) VALUES
  ('CC(C)NC(=O)Cc1ccc(Oc2nc3cc(F)c(F)cc3s2)cc1O [NZ-407]', 110),
  ('CNC(=O)C(C)c1ccc(Oc2nc3ccc(F)cc3s2)cc1O (stereo not drawn) [NZ-408]', 210),
  ('CONC(=O)C(C)c1ccc(Oc2nc3ccc(Cl)cc3s2)cc1 (racemic) [NZ-313]', 320),
  ('CC(C(=O)N1CCN(C)CC1)c1ccc(Oc2nc3ccc(Cl)cc3s2)cc1 (stereo not drawn) [NZ-366]', 4900),
  ('CC(C)NC(=O)N(C)c1ccc(Oc2nc3ccc(Cl)cc3s2)cc1 [NZ-388]', 3000),
  ('CONC(=O)[C@@H](C)Oc1ccc(Oc2cnc3cc(Cl)ccc3n2)cc1 [NZ-295]', 930);

Prompt: Return reported IC50; argument: CONC(=O)C(C)c1ccc(Oc2nc3ccc(F)cc3s2)cc1 (racemic) [NZ-330]
Completion: 240
